# Tested on: HCC-2998 colon
# assay notes: NCI tumour cell line growth inhibition, 48 h; in the data active = GI50 below about 0.43 µM; inactive = the rest
Mark one answer only. Choices: TRUE for active, FALSE for inactive

Assay outcome for `COc1ccc2[nH]cc(-c3nc(-c4c[nH]c5ncccc45)cs3)c2c1` : what was it?
FALSE

Assay outcome for `COc1cc(-c2nn(-c3cccc(NC(=O)Nc4ccc(Cl)c(Cl)c4)c3)cc2-c2ccncc2)ccc1Cl` : what was it?
FALSE

Assay outcome for `Cc1csc(Nc2nc(-c3cccc(Br)c3)nc(C(Cl)(Cl)Cl)n2)n1` : what was it?
FALSE

Assay outcome for `CCOc1ccc2nc(S/C(=C/C=C(C#N)C#N)c3ccc(C)cc3)sc2c1` : what was it?
FALSE

Assay outcome for `Cc1ccc(/C=C/c2c(C(=O)/C=C/c3ccc(C(F)(F)F)cc3)c(C)nc3ccccc23)cc1` : what was it?
FALSE

Assay outcome for `C[C@H]1Oc2cc(cnc2N)-c2c(nn(C)c2C#N)CN(C)C(=O)c2ccc(F)cc21` : what was it?
FALSE

Assay outcome for `Cn1cnc([N+](=O)[O-])c1S(=O)(=O)Oc1ccccc1` : what was it?
FALSE

Assay outcome for `CCN(CC)c1nc(-c2ccc(Cl)cc2Cl)nc2ccccc12` : what was it?
FALSE

Assay outcome for `COC12C=C/C(=C(/C(=O)OCc3ccncc3)C(=O)CCCCCCCCC3(OC)C=C/C(=C(/C(=O)OCc4ccncc4)C(=O)CCCCCCCC1)O3)O2` : what was it?
FALSE

Assay outcome for CC12CCC3C(CCC4=CC(O)CCC43C=O)C1(O)CCC2c1ccc(=O)oc1 (stereo not given) : what was it?
TRUE
